- Test system: U2OS
- testSummary: Here: values are normalized to the positive (DMSO; basel flux = defined as 100% suppression) and negative (250nM Torin1; mTOR inhibitor; maximal inducer of autophagy defined as 0% suppression) control compounds and represented as % of ER-phagy suppression. […] The impact of autophagy induction on cells is complex and depends on the affected target. […] Of note, treatment concentrations may be sub-optimal for specific compounds, leading to false negative annotations.
- Type: functional, Homo sapiens
- reportedConditions: Compound Concentration 1 uM, Timepoint 24 hours, Culturing Media DMEM, 1 % Penicillin/Streptomycin, 10% Fetal bovin serum Add-On: blasticidin, Screening Media Control DMEM, 10% Fetal bovin serum Add-On: 1 µg/ml Doxycyclin, Screening Media Samples DMEM, 10% Fetal bovin serum Add-On: 1 µg/ml Doxycyclin 250nM Torin1
attributeMeasured: ER-phagy suppression (%)
Give your result in % as a bare value.

Consider the reported ER-phagy suppression for these compounds:
smilesData	measurementTarget	unitsText	ER-phagy suppression
CN(C)C(=O)N1CC[C@H](NC2=Nc3cc(F)ccc3N(CC(F)F)c3ccc(Cl)cc32)C1	U2OS	%	-22.2791
O=C(O)c1ccc2c3c1cccc3c(=O)n1c3ccccc3nc21	U2OS	%	-24.1866
Cn1cnc2c(F)c(Nc3ccc(Br)cc3Cl)c(C(=O)NOCCO)cc21	U2OS	%	20.3816
CN(C)C(=O)Cn1cc(-c2ccc(-c3nnc4ccccn34)cc2)cn1	U2OS	%	-21.3564
Nc1c(C(=O)NCc2ccc(C(=O)NCCCC3CCCCC3)cc2)cnn1-c1ccccc1	U2OS	%	-10.9122

Problem: Which ER-phagy suppression is listed for CCn1c(=O)c(-c2ccc(Cl)cc2Cl)cc2cnc(Nc3ccc(N4CCNCC4)c(F)c3)nc21 ?
Result: 60.1254

Problem: Now give it for CCCCN(Cc1ccccc1)C(=O)c1ccc(S(=O)(=O)Nc2ccccc2)cc1 too.
Result: -6.76

Problem: Subsequent entry: Cc1c(NC(=O)c2ccc(C(C)(C)C)cc2)cccc1-c1cn(C)c(=O)c(Nc2ccc(C(=O)N3CCOCC3)cc2)n1
Result: -11.9993

Problem: Same question, CN(C)CCCn1cc(C2=C(c3c[nH]c4ccccc34)C(=O)NC2=O)c2ccccc21 this time
Result: 134.347

Problem: CN([C@@H](Cc1ccc(OS(=O)(=O)c2cccc3cnccc23)cc1)C(=O)N1CCN(c2ccccc2)CC1)S(=O)(=O)c1cccc2cnccc12 ?
Result: -2.8225

Problem: Thanks! And CN1CCN(C(=O)C(C)(C)c2ccc(C(=O)Nc3cn4cc(-c5cc(C(C)(C)C)cc(C(C)(C)C)c5)ccc4n3)cc2)CC1 ?
Result: 0.7117

Problem: Moving on to O=C(O)c1ccc(-c2c[nH]c3ncc(-c4ccccc4)cc23)cc1C1CCCC1
Result: -12.5069
